So I've got a bunch of molecules here, and I need their MIC values.
test system: Mycobacterium tuberculosis; assay: Antibacterial activity multi-drug resistant Mycobacterium tuberculosis H37Rv ATCC 35822 assessed as inhibition of bacterial growth incubated for 2 days by CLSI protocol based broth microdilution method; type: functional; conditions: H37Rv ATCC 35822, 48 h, time 2 day

Hey, quick one: what's MIC for each of these?
1. COc1cc(CN2CCN(C(=O)c3cccc(Cl)c3)CC2)nc2ccc(F)cc12
2. COc1cc(CN2CCN(S(=O)(=O)c3ccc(Cl)cc3Cl)CC2)nc2ccc(F)cc12
3. COc1ccc(S(=O)(=O)N2CCN(Cc3cc(OC)c4cc(F)ccc4n3)CC2)cc1
4. COc1cc(CN2CCN(C(=O)c3ccccc3C)CC2)nc2ccc(F)cc12
5. COc1ccc2nc(CN3CCN(C(=O)c4ccc(Cl)c(Cl)c4)CC3)cc(OC)c2c1

A:
1: > 64 µg/mL; 2: > 64 µg/mL; 3: > 64 µg/mL; 4: > 64 µg/mL; 5: > 64 µg/mL

----------
system: Mycobacterium tuberculosis; test: Antibacterial activity multi-drug resistant Mycobacterium tuberculosis H37Rv ATCC 35822 assessed as inhibition of bacterial growth incubated for 2 days by CLSI protocol based broth microdilution method; type: functional; conditions: H37Rv ATCC 35822, 48 h, time 2 day
OBSERVATION TYPE: MIC (µg/mL)
One number for each entry, in µg/mL.

Worked cases, answers included:
COc1cc(CN2CCN(S(=O)(=O)c3ccccc3F)CC2)nc2ccc(F)cc12 ... 4
COc1ccc2nc(CN3CCN(S(=O)(=O)c4ccccc4F)CC3)cc(OC)c2c1 ... 0.5

Now for the compound whose MIC we want.
Lookup result for C[C@H]1COc2c(N3CCN(C)CC3)c(F)cc3c(=O)c(C(=O)O)cn1c23.C[C@H]1COc2c(N3CCN(C)CC3)c(F)cc3c(=O)c(C(=O)O)cn1c23.O ; measured MIC: 4
